Numbers sourced from ChEMBL document CHEMBL4732208.

test system: Micrococcus luteus; experiment: Antibacterial activity against Micrococcus luteus NCTC 8340; type: functional
MIC values by entry

| compoundString | MIC |
| --- | --- |
| CCCCCCCCNc1ccn([C@H]2C[C@H](O)[C@@H](CO)O2)c(=O)n1 | > 200 µM |
| Cc1cn([C@H]2C[C@H](O)[C@@H](CO)O2)c(=O)nc1NCCc1ccccc1 | > 200 µM |
| O=c1nc(NCCCCc2ccccc2)ccn1[C@H]1C[C@H](O)[C@@H](CO)O1 | > 200 µM |
| CCCCCCCCCCCCNc1ccn([C@H]2C[C@H](O)[C@@H](CO)O2)c(=O)n1 | 70 µM |
| CCCCCCCCCCCCCCNc1ccn([C@H]2C[C@H](O)[C@@H](CO)O2)c(=O)n1 | > 200 µM |
| CCCCCCNc1nc(=O)n([C@H]2C[C@H](O)[C@@H](CO)O2)cc1C | > 200 µM |
| CCCCCCCCCCCCNc1nc(=O)n([C@H]2C[C@H](O)[C@@H](CO)O2)cc1C | 24 µM |
| COCCOCCOCCNc1nc(=O)n([C@H]2C[C@H](O)[C@@H](CO)O2)cc1C | > 200 µM |
| CCCCCCCCCCNc1nc(=O)n([C@H]2C[C@H](O)[C@@H](CO)O2)cc1C | 50 µM |
| CCCCCCCCNc1ccn([C@@H]2O[C@H](CO)[C@@H](O)[C@H]2O)c(=O)n1 | > 200 µM |
| CCCCCCCCCCNc1ccn([C@H]2C[C@H](O)[C@@H](CO)O2)c(=O)n1 | 140 µM |
| CCCCCCCCCCNc1ccn([C@@H]2O[C@H](CO)[C@@H](O)[C@H]2O)c(=O)n1 | > 200 µM |
| CCCCCCCCNc1nc(=O)n([C@H]2C[C@H](O)[C@@H](CO)O2)cc1C | > 200 µM |
| NCC[C@H](O)C(=O)N[C@@H]1C[C@H](N)[C@@H](O[C@H]2O[C@H](CN)[C@@H](O)[C@H](O)[C@H]2O)[C@H](O)[C@H]1O[C@H]1O[C@H](CO)[C@@H](O)[C@H](N)[C@H]1O | 1 µM |
| CCCCCCCCCCNc1nc(=O)n([C@H]2C[C@H](OC(=O)OCCOCCOCCO)[C@@H](CO)O2)cc1C | > 45 µM |
| CCCCCCCCCCCCNc1nc(=O)n([C@H]2C[C@H](OC(=O)OCCOCCOCCO)[C@@H](CO)O2)cc1C | 50 µM |
